Every entry's value here was drawn from patent US12281155.

Recorded Binding AUC values for a group of binders are listed next.
molecular target: T1, recombinant SARS-CoV-2 Spike RBD domain, XBB.1.16 variant (SARS-CoV-2); assay: ELISA on coated RBD
T1 construct: also called RBD XBB.1.16 variant

| BINDER | Binding AUC |
| --- | --- |
| SPK002M A3 antibody (antibody, human IgG1, kappa, V domains shown) VH: EVQLVESGGGLIQPGGSLRLSCAASTITVTSNYMSWVRQAPGKGLEWVSVIYPGGSTFYADSVKGRFTISADNSKNTLYLQMNSLRAEDTAVYYCARDLVVYGMDVWGQGTTVTVSS VL: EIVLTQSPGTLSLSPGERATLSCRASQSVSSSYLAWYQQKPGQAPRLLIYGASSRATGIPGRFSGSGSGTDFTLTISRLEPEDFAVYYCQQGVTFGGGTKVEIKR | 31 |
| SPK002M C2 antibody (antibody, human IgG1, kappa, V domains shown) VH: EVQLVESGGGLIQPGGSLRLSCAASIITVTSNYMSWVRQAPGKGLEWVSVAYPGGSTFYADSVKGRFTISTDNSKNTLYLQMNSLRAEDTAVYYCARDLVVYGMDVWGQGTTVTVSS VL: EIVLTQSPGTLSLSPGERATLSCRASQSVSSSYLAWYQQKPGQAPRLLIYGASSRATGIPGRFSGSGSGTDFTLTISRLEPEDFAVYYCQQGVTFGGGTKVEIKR | 29 |
